meta.source: PubChem BioAssay (EPA / NIEHS)

- System: rat Monoamine Oxidase, MAO-A, Peripheral (MAOAP), gene 29253
- measurement-protocol: NVS_ENZ_rMAOAP: NovaScreen (NVS) Enzymatic Assay for rat Monoamine Oxidase, MAO-A, Peripheral (MAOAP) (AID 2283237)
Inconclusive results are not listed. Activity calls are given as the source filed them. How the source made its calls: active means hit-call score of the fitted dose curve at least 0.9, where 1 is the maximum; inconclusive means response in the unintended direction; inactive means score below 0.9.
// allowed return values: active, inactive

// below: answered compounds
>>> class_name("CCN(CC)CCO")
"inactive"
>>> class_name("CC(C)(O)c1cnn2c(-c3ccc(F)c(-c4c(F)cccc4C#N)c3)cnc2n1")
"inactive"

# input Called result for Oc1ccc2ccc3cccc4ccc1c2c34
# output active

# input Called result for CN(C)c1ccc(C(=O)c2ccc(N(C)C)cc2)cc1
# output active

# input Called result for [Cl-].[Cl-].[Hg+2]
# output active

# input Called result for CC(C)(C)OOC(C)(C)CCC(C)(C)OOC(C)(C)C
# output inactive

---

- measurement-protocol: Tanguay_ZF_120hpf_BRAI_legacy: (Legacy) Oregon State University Tanguay Lab 120 Hour Post-fertilization zebrafish Assay for Brain Malformation (AID 2283641)
Records with an inconclusive call do not appear. Active and inactive are the calls of the source. How the source made its calls: active means hit-call score of the fitted dose curve at least 0.9, where 1 is the maximum; inconclusive means response in the unintended direction; inactive means score below 0.9.
// allowed return values: active, inactive

// below: answered compounds
>>> class_name("CN(C)c1ccc(C(=O)c2ccc(N(C)C)cc2)cc1")
"active"
>>> class_name("O=C(Oc1ccc(Br)cc1)N1CCN2CCC1CC2")
"inactive"
>>> class_name("CCCCCCCCn1sccc1=O")
"inactive"

# input Called result for Cc1ccc(N)cc1
# output inactive

# input Called result for CCCCOC(=O)c1ccccc1C(=O)OCc1ccccc1
# output inactive

# input Called result for Nc1ccc(Cl)cc1N
# output inactive

# input Called result for ClC1=C(Cl)C2(Cl)C3C(Cl)C=CC3C1(Cl)C2(Cl)Cl (centres undefined)
# output inactive

# input Called result for OCCCBr
# output inactive

# input Called result for [As]#[In]
# output inactive

# input Called result for CC(C)N(Cc1ccccc1)C(=O)C(C)(C)C
# output inactive

# input Called result for Nc1ccc(Oc2ccc(N)cc2)cc1
# output inactive

# input Called result for O=C(N[C@H](c1ccccc1)[C@@H]1CN2CCC1CC2)c1c(Cl)ccc(C(F)(F)F)c1Cl
# output inactive

# input Called result for [Cl-].[Cl-].[Hg+2]
# output active

# input Called result for CCCCCOC(=O)c1ccccc1C(=O)OCCCCC
# output inactive

# input Called result for CS(=O)(=O)NC(=O)c1cc(Oc2ccc(C(F)(F)F)cc2Cl)ccc1[N+](=O)[O-]
# output inactive

# input Called result for CC(C)(C)C(O)(CCc1ccc(Cl)cc1)Cn1cncn1 (centres undefined)
# output inactive

# input Called result for c1ccc2c(c1)-c1cccc3cccc-2c13
# output inactive

# input Called result for O=Cc1ccco1
# output inactive

# input Called result for Cc1ccc(N)c(N)c1
# output inactive

# input Called result for CCNS(=O)(=O)C(F)(F)C(F)(F)C(F)(F)C(F)(F)C(F)(F)C(F)(F)C(F)(F)C(F)(F)F
# output active

---

- measurement-protocol: CCTE_Shafer_MEA_dev_burst_duration_mean: CCTE's Neural Network Formation Assay for Mean Burst Duration, Shafer Lab (AID 2284045)
The source made the active and inactive calls. Rule for the calls: active = hit-call score of the fitted dose curve at least 0.9, where 1 is the maximum; inactive = score below 0.9.
// allowed return values: true = active, false = inactive

// below: answered compounds
>>> class_name("CC(C)(O)c1cnn2c(-c3ccc(F)c(-c4c(F)cccc4C#N)c3)cnc2n1")
"false"
>>> class_name("CN(C)[C@@H]1C(=O)C(C(N)=O)=C(O)[C@@]2(O)C(=O)C3=C(O)c4c(O)cccc4[C@@](C)(O)[C@H]3C[C@@H]12")
"false"
>>> class_name("COP(=S)(OC)SCN1C(=O)c2ccccc2C1=O")
"false"
>>> class_name("[Cl-].[Cl-].[Hg+2]")
"true"
>>> class_name("CCNS(=O)(=O)C(F)(F)C(F)(F)C(F)(F)C(F)(F)C(F)(F)C(F)(F)C(F)(F)C(F)(F)F")
"false"

# input Called result for [O-][Cl+]O
# output true

# input Called result for O=P(OCCCl)(OCCCl)OCCCl
# output false

# input Called result for CC(C)COC(=O)c1ccccc1C(=O)OCC(C)C
# output false

# input Called result for CNC(=O)Oc1cccc2c1OC(C)(C)C2
# output false

# input Called result for COC(=O)Nc1nc2ccccc2[nH]1
# output false

---

- measurement-protocol: Tanguay_ZF_120hpf_EYE_legacy: (Legacy) Oregon State University Tanguay Lab 120 Hour Post-fertilization zebrafish Assay for Eye Malformation (AID 2283636);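 further: binary presence or absence of eye malformation scored by brightfield in 120 hpf larvae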
Inconclusive results are not listed. The source made the active and inactive calls. How the source made its calls: active means hit-call score of the fitted dose curve at least 0.9, where 1 is the maximum; inconclusive means response in the unintended direction; inactive means score below 0.9.
// allowed return values: active, inactive

>>> class_name("C1=Cc2cccc3cccc1c23")
"inactive"
>>> class_name("Cc1cccc(N)c1N")
"inactive"
>>> class_name("O=[N+]([O-])C(Br)(CO)CO")
"inactive"
>>> class_name("O=[N+]([O-])c1ccc(Oc2ccc(Cl)cc2Cl)cc1")
"inactive"

# input Called result for O=C(O)C1C2CCC(O2)C1C(=O)O (configuration not stated)
# output inactive

---

- assayed-system: Heat shock factor protein 1 (Homo sapiens) (UniProt Q00613)
- Sequence (Q00613 whole entry, looked up): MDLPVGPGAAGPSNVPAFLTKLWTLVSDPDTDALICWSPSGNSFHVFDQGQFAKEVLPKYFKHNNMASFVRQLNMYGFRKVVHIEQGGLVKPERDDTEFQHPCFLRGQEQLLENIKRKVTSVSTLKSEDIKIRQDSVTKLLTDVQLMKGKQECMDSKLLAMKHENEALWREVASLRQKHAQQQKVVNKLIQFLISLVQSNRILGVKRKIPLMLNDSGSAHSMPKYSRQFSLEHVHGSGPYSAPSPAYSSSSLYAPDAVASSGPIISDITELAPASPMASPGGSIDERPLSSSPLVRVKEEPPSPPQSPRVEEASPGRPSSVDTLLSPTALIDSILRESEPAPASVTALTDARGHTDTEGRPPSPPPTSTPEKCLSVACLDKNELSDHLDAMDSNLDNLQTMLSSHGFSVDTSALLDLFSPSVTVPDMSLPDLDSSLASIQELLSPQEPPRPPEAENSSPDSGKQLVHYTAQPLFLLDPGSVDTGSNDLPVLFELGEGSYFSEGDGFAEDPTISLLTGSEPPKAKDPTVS
- measurement-protocol: ATG_HSE_CIS: Attagene CIS-FACTORIAL HepG2 Assay for human Heat Shock Transcription Factor 1 (HSE) (AID 2282953)
- recorded-conditions: HepG2 HSE cis-reporter, Attagene RNA transcription; actives raise or lower the signal
Calls of active or inactive are those of the source. Rule for the calls: active = hit-call score of the fitted dose curve at least 0.9, where 1 is the maximum; inactive = score below 0.9.
observed-property: outcome

>>> observed("OCCCl")
"inactive"
>>> observed("CC(C)COC(=O)c1ccccc1C(=O)OCC(C)C")
"inactive"
>>> observed("Oc1ccc2ccc3cccc4ccc1c2c34")
"inactive"
>>> observed("CCCCCCCCOC(=O)c1ccc(C(=O)OCCCCCCCC)c(C(=O)OCCCCCCCC)c1")
"inactive"
>>> observed("CN(C)[C@@H]1C(=O)C(C(N)=O)=C(O)[C@@]2(O)C(=O)C3=C(O)c4c(O)cccc4[C@@](C)(O)[C@H]3C[C@@H]12")
"inactive"

# input Which outcome reading was recorded for the compound O=P(OCCCl)(OCCCl)OCCCl ?
# output inactive

---

- Read-out: C-C motif chemokine 2 (Homo sapiens) (UniProt P13500)
- measurement-protocol: BSK_KF3CT_MCP1: BioMAP Diversity Plus: KF3CT Assay for Monocyte Chemoattractant Protein 1 (MCP1/CCL2) Biomarker Activity (AID 2283073)
- recorded-conditions: primary human keratinocytes with fibroblasts; actives raise or lower the signal
Activity calls are given as the source filed them. Rule for the calls: active = hit-call score of the fitted dose curve at least 0.9, where 1 is the maximum; inactive = score below 0.9.
// allowed return values: active, inactive

// below: answered molecules
>>> class_name("Clc1ccc(C(c2ccc(Cl)cc2)C(Cl)(Cl)Cl)cc1")
"active"
>>> class_name("CC(C)(C)OOC(C)(C)CCC(C)(C)OOC(C)(C)C")
"inactive"
>>> class_name("O=C(O)C1C2CCC(O2)C1C(=O)O (centres undefined)")
"inactive"
>>> class_name("O=C1CCCO1")
"inactive"
>>> class_name("Cc1cccc(N)c1N")
"inactive"

# input Called result for CCCCCCCCOC(=O)c1ccc(C(=O)OCCCCCCCC)c(C(=O)OCCCCCCCC)c1
# output inactive

# input Called result for N#CC(Br)Br
# output inactive

# input Called result for O=Cc1ccco1
# output inactive

# input Called result for c1ccc(N=Nc2ccccc2)cc1
# output inactive

# input Called result for Nc1cc(Cl)cc(C(=O)O)c1Cl
# output inactive

# input Called result for Nc1ccc(Cl)cc1N
# output inactive

# input Called result for OCCCl
# output inactive

# input Called result for CCCCCCCCCCCCCN1CC(C)OC(C)C1 (centres undefined)
# output inactive

# input Called result for OCCCBr
# output inactive

# input Called result for CCC12COCN1COC2
# output inactive

---

- assayed-system: human Acetylcholinesterase (AChE), ACHE (gene 43) (UniProt P22303)
- Sequence (P22303 whole entry, looked up): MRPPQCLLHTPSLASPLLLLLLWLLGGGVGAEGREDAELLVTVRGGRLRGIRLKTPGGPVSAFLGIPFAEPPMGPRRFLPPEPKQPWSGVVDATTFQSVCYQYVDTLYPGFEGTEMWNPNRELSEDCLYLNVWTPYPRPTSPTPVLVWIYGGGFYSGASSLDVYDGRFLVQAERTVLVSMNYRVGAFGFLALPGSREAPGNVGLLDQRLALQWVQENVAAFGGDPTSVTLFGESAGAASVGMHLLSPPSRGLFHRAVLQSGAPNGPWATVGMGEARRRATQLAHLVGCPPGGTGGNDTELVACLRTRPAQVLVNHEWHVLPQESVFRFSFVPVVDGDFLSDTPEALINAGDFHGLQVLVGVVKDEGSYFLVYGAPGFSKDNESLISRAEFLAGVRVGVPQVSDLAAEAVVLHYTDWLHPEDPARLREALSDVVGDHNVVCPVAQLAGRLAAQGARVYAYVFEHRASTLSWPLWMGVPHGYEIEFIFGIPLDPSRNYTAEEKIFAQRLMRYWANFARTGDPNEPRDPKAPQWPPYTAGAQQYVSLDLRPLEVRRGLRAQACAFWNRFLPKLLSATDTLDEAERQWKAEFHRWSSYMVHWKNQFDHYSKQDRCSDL
- measurement-protocol: NVS_ENZ_hAChE: NovaScreen (NVS) Enzymatic Assay for human Acetylcholinesterase (AChE) (AID 2283129)
Results filed as inconclusive are left out. Activity calls are given as the source filed them. Rule for the calls: active = hit-call score of the fitted dose curve at least 0.9, where 1 is the maximum; inconclusive = response in the unintended direction; inactive = score below 0.9.
// allowed return values: yes for active, no for inactive

# input Called result for CNC(=O)Oc1cccc2c1OC(C)(C)C2
# output yes

# input Called result for CCCCC(CC)COC(=O)c1ccc(C(=O)OCC(CC)CCCC)c(C(=O)OCC(CC)CCCC)c1 (centres undefined)
# output no

# input Called result for Oc1ccc2ccc3cccc4ccc1c2c34
# output yes

# input Called result for Cc1ccc(N=C=O)cc1N=C=O
# output yes

---

- Read-out: Keratin 19 (KRT19), KRT19 (gene 3880)
- measurement-protocol: LTEA_HepaRG_KRT19: Life Technologies and Expression Analysis (LTEA) Assay for Keratin 19 (KRT19) using HepaRG (AID 2283512)
- recorded-conditions: mRNA level, 48 h; actives raise or lower the signal
Activity calls are given as the source filed them. How the source made its calls: active means hit-call score of the fitted dose curve at least 0.9, where 1 is the maximum; inactive means score below 0.9.
// allowed return values: active, inactive

>>> class_name("c1ccc(N=Nc2ccccc2)cc1")
"inactive"
>>> class_name("CC(C)(OOC(C)(C)c1ccccc1)c1ccccc1")
"inactive"
>>> class_name("CC(C)(O)c1cnn2c(-c3ccc(F)c(-c4c(F)cccc4C#N)c3)cnc2n1")
"inactive"
>>> class_name("c1ccc2c(c1)-c1cccc3cccc-2c13")
"inactive"
>>> class_name("Nc1ccc(Cc2ccc(N)cc2)cc1")
"inactive"
>>> class_name("CCC(C)c1ccc(O)cc1 (stereo not drawn)")
"inactive"

# input Called result for Clc1ccc(Cl)c(Cl)c1
# output inactive

# input Called result for CCN(CC)CCO
# output inactive

# input Called result for Clc1ccc(C(c2ccc(Cl)cc2)C(Cl)(Cl)Cl)cc1
# output inactive

# input Called result for O=[N+]([O-])C(Br)(CO)CO
# output inactive

# input Called result for O=P(OCCCl)(OCCCl)OCCCl
# output inactive

# input Called result for c1ccc(NNc2ccccc2)cc1
# output inactive

# input Called result for COc1cc(C=O)cc2c1[C@H](COC(N)=O)[C@]1(OC(C)=O)ON2C[C@H]2[C@@H]1N2C(C)=O
# output active

# input Called result for OCCOCCO
# output inactive

# input Called result for C[N+](C)(C)CC1CO1 (stereo not drawn)
# output inactive
